Target chain: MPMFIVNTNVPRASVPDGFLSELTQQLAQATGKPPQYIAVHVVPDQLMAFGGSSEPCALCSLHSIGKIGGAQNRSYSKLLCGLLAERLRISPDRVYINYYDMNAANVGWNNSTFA
As shown below, each of these molecules has a reported pIC50 value.
Scale: pIC50 equals -log10([C]), with [C] in mol/L.

Example entries begin here.
O=C(O/N=C/c1ccc(O)cc1)C1CC=CCC1 (configuration not stated); 5.47
CC(C)CC(=O)O/N=C/c1ccc(O)cc1; 5.15
CC(C)C(=O)O/N=C/c1ccc(O)cc1; 4.60
CC(=O)O/N=C/c1ccc(O)cc1; 3.83
CC(C)(C)CC(=O)O/N=C/c1ccc(O)cc1; 5.15

Qu. What does the record list as pIC50 for CCCCC(=O)O/N=C/c1ccc(O)cc1 ?
Ans. 4.84

Qu. Now this one: O=C(O/N=C/c1ccc(O)cc1)C1CCCC1
Ans. 5.40
